The values you see were collected from the array DNA melting data of Ke et al. (doi:10.1101/2024.01.08.574731).

# TEST_DESCRIPTION: melting temperature; fluorescence melt of hairpins on a sequencing array, two-state fit, raised by 9.35 °C to match UV melts
# RUN_CONDITIONS: sodium 0.088 M
TEST_READOUT: Tm (°C)
Please give a number only; it is taken to be in °C.

GET /value?item= GATCTCTTGTGAGATC ((((((....)))))) &field=Tm returns 53.1

Reported Tm for GATCATCATCATGATC ((((((....)))))) was 45

Reported Tm ( GGTATGGGAAACTATGCC ((.((.(....).)).)) ) = 30.9

Query GATCGCACGGCGATC ((((((...)))))) yields Tm of 69.3

Record GAGACCGAAAGGTTTCTC ((((((....)))..))) . Reported Tm: 50.6

Query TGTACGAAAGTACA (((((....))))) yields Tm of 54.7

* * *

For each record, write down the corresponding Tm.
# TEST_DESCRIPTION: melting temperature; fluorescence melt of hairpins on a sequencing array, two-state fit, raised by 9.35 °C to match UV melts
# RUN_CONDITIONS: sodium 0.088 M
# number only, unit °C dropped from output

Just so you know, measured Tm for GGGACCGAAAGGTCGCCC ((((((....)))..))) came out at 57.5

For reference, reported Tm for GATCGGTGGCCGATC ((((((...)))))) stands at 55.9

GET /value?item= GAGTCCGAAAGGATTCTC ((((((....)))..))) &field=Tm returns 50.6

For GCGGCTACCGC ((((...)))) the sequence record lists Tm as 57.7

// field: Tm; key: GAATTCGGAAACGGATTC ((((.((....)).)))) ; value = 45.4

Looking up GATCGGCAGGCCGATC ((((((....)))))) , I see its Tm listed as 66.8

sequence GACCACGAAAGTGCCGTC ((((((....)))..))) , Tm observed: 33.6

Short answer for GGGCTCGAAAGAGTTCCC ((((((....)))..))) : Tm was 43.5

Lab note: GAAACCGAAAGGTGCTTC ((((((....)))..))) gave Tm of 43.5

Input GCGGAACGAAAGTTTCGC (((.(((....))).))) . Output Tm: 64.8

Notebook: GTAGTGGGAAACTGCTAC ((((..(....)..)))) , Tm read as 36.8

Entry GGCTAAGAAATTAGCC ((((((....)))))) ; Tm = 53.8

* * *

Hi there, I'd appreciate the recorded folding enthalpy for every entry that follows.
# TEST_DESCRIPTION: folding enthalpy; higher = less favourable; fluorescence melt of hairpins on a sequencing array, two-state fit
# RUN_CONDITIONS: sodium 0.088 M
Just the number in kcal/mol, nothing appended.

Memo: GATCTTCCAAAAGATC ((((((....)))))) , reported folding enthalpy: -32

Per the records, this sequence ( GGTTACGAAAGTAATACC ((((((....)))..))) ) has folding enthalpy equal to -14.9

folding enthalpy measured on GTGTCCGGAAACAGACAC (((((.(....).))))) = -30.1

Value of folding enthalpy reported for the sequence GGTTCAGGAAACTGGATC (.(.(((....))).).) is -10.2

Please fill in: folding enthalpy reported for GATCTACCAGTAGATC ((((((....)))))) = -32.6

Entry GATCAAGTCTTGATC ((((((...)))))) — recorded folding enthalpy = -30.4

GCTCTGCGAAAGCTAAGC (((..((....))..))) yielded folding enthalpy of -13.4

Entry GTTCTTGGAAACAAGAGC (.(((((....))))).) — recorded folding enthalpy = -19.6

So, GCGTCTATACGC ((((....)))) ? Its folding enthalpy was -25

Entry GATGTGGGAAACCATGTC ((..(((....)))..)) ; folding enthalpy = -32.6

Documented folding enthalpy of GAGCTCCGAAAGGACCTC (((.(((....))).))) : -20.2

Just so you know, measured folding enthalpy for GCTCGACCGAAAGGTAGC (((..(((....)))))) came out at -13.8

The recorded folding enthalpy for entry GATCAGTAACCTGATC ((((((....)))))) equals -27.6

The sequence GGGCGCGAAAGCGAGCCC ((((((....)))..))) showed folding enthalpy equal to -16.7

folding enthalpy for GAGAACGAAAGTTTTCTC ((((((....)))..))) is -30.2

// recorded folding enthalpy for GCCGACGAAAGTCCGGGC ((((((....)))..))) : -24.4

The recorded folding enthalpy for entry GCAATCCGAAAGGAATGC (((.(((....))).))) equals -34.5

For reference, reported folding enthalpy for GTGCTTGGAAACGAGCAC (((((.(....).))))) stands at -40.1

// folding enthalpy lookup, sequence = GCCTGGGGAAACCTAGGC ((((.((....)).)))) , result: -31.5

Record GTGTCGGGAAACCAACAC ((((.((....)).)))) , field folding enthalpy: -33.7

The sequence listed as GAGGAAGCGAAAGCTCTC (((..(((....)))))) has a reported folding enthalpy of -13.7

GET /value?item= GCGAACGTTCGC ((((....)))) &field=folding enthalpy returns -39.5

Kindly note the recorded folding enthalpy for GCAGCGCGAAAGCGCCGC ((.((((....)))).)) , which is -15.5

In plain terms, GAGTTCGGAAACGGATTC ((.(.((....)).).)) has a documented folding enthalpy of -17.4

Measured folding enthalpy of GCTGTCGAAAGACGGAGC ((((((....)))..))) : -18.1

* * *

# TEST_DESCRIPTION: folding enthalpy; higher = less favourable; fluorescence melt of hairpins on a sequencing array, two-state fit
# RUN_CONDITIONS: sodium 0.088 M
Classify by measured folding enthalpy: MET if it is equal to or exceeds -10 kcal/mol, NOT MET if it is smaller.

Problem: Test whether the sequence GTTGCCCGAAAGGGAAAC (((.(((....))).))) records folding enthalpy of -10 kcal/mol or higher.
Result: NOT MET

Problem: Answer whether folding enthalpy of CGCCCGGAAACGGATGCG ((((((....)))..))) is greater than or equal to -10 kcal/mol.
Result: NOT MET

Problem: Given GCATAGCGAAAGCTCAGC ((..(((....)))..)) , state whether its folding enthalpy is at least -10 kcal/mol.
Result: NOT MET

Problem: Reported folding enthalpy at or above -10 kcal/mol? GTATTCGGAAACAAATAC (((((.(....).)))))
Result: NOT MET

Problem: Tell me whether folding enthalpy is at least -10 kcal/mol here: GATCCCCCGAGGGATC ((((((....))))))
Result: NOT MET

Problem: Does GTAAGGACGAAAGTCTAC (((..(((....)))))) have a reported folding enthalpy of at least -10 kcal/mol?
Result: MET

Problem: Confirm if folding enthalpy reported for the sequence GCGGACGAAAGTCACGC ((((((....))).))) is -10 kcal/mol or above.
Result: NOT MET

Problem: hey, is folding enthalpy for this one >= -10 kcal/mol? GATCCGGCGTCGGATC ((((((....))))))
Result: NOT MET

Problem: Does the sequence GAAGGGGGAAACCCCTCC (.(((((....))))).) have recorded folding enthalpy that is -10 kcal/mol or more?
Result: NOT MET

Problem: Is reported folding enthalpy greater than or equal to -10 kcal/mol here: GTATTGACGAAAGTCTAC (((..(((....))))))
Result: MET

Problem: Has GATCCACTTATGGATC ((((((....)))))) a recorded folding enthalpy greater than or equal to -10 kcal/mol?
Result: NOT MET

Problem: Entry GAGTAGCCGAAAGGCCTC (((..(((....)))))) : is its folding enthalpy no less than -10 kcal/mol?
Result: NOT MET

* * *

# TEST_DESCRIPTION: melting temperature; fluorescence melt of hairpins on a sequencing array, two-state fit, raised by 9.35 °C to match UV melts
# RUN_CONDITIONS: sodium 0.088 M
TEST_READOUT: Tm (°C)
Reply with just the number (in °C).

Field Tm (entry GGTTACGGAAACATAACC (((((.(....).))))) ) reads 35.8

Measured Tm, GCCAGGCGAAAGCAAGGC (((..((....))..))) : 60.6

GTTCGTCGAAAGACAAAC (((.(((....))).))) yielded Tm of 41.2

Entry GGACCGCGAAAGCGTTCC (((.(((....))).))) , Tm reported as 53.1

Reported Tm ( GGTTCGGGAAACCGAGTC (..((((....))))..) ) = 36.5

# sequence GATCAGTTGGCTGATC ((((((....)))))) ; its Tm = 54.3
